Where do the numbers come from? From patent US12011444B2.

Here's what we have: pIC50 numbers for EP2 (Homo sapiens (Human)).
When answering, recall that pIC50 equals minus log10 of the concentration in mol/L, and write that number alone.

Consider the worked cases shown below.
| chemical-smiles | quantitative-readout |
| --- | --- |
| COc1ccc(F)c2c1cc(C)n2CCNc1cc(-c2ccc(S(N)(=O)=O)c(C(F)(F)F)c2)ncn1 | 7.77 |
| CCOc1cc(-c2cc(NCCn3c(C)cc4c(OC)cc(Cl)cc43)ncn2)ccc1C(=O)O | 8.00 |
| COc1cc(-c2cc(NCCn3c(C)cc4c(OC)ccc(Cl)c43)ncn2)ccc1-c1nnn[nH]1 | 7.44 |
| COc1ccc(-c2ccc(-c3cc(NCCn4c(C)cc5c(OC)cc(F)cc54)ncn3)cc2)nn1 | 7.07 |
| COc1ccc(F)c2c1cc(C)n2CCNc1cc(-c2ccc(C(=O)O)c(OC3CCCC3)c2)ncn1 | 8.00 |
| CCOc1cc(-c2cc(NCCn3c(C)cc4c(C)ccc(F)c43)ncn2)cc(CC)c1C(=O)O | 7.48 |
| Cc1cc(F)cc2c1cc(C)n2CCNc1cc(-c2ccc(-c3ncno3)cc2)ncn1 | 8.22 |
| COc1cc(F)cc2c1cc(C)n2CCNc1cc(-c2ccc3ccncc3c2)ncn1 | 7.44 |

Inquiry: With EP2 (Homo sapiens (Human)) as the test system, provide measured pIC50 for this compound: `COc1ccc(F)c2c1cc(C)n2CCNc1cc(-c2ccc(-c3onc(C)c3C(=O)O)cc2)ncn1`
Sequence (P43116 whole entry): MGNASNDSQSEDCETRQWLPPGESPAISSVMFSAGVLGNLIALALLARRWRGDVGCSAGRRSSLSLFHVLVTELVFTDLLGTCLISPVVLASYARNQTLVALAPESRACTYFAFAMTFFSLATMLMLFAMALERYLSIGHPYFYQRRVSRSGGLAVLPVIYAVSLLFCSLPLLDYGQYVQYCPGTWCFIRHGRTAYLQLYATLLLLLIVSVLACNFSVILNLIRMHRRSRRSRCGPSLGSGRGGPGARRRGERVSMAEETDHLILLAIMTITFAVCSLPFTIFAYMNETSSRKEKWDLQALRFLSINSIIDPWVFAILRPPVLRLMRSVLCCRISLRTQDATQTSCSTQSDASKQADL
Reply text: 8.00

Inquiry: With EP2 (Homo sapiens (Human)) as the test system, provide measured pIC50 for this compound: `Cc1cc2ccccc2n1CCNc1cc(-c2ccc3[nH]ccc3c2)ncn1`
Reply text: 8.40

Inquiry: With EP2 (Homo sapiens (Human)) as the test system, provide measured pIC50 for this compound: `Cc1cc2c(F)cc(F)c(F)c2n1CCNc1cc(-c2ccc(C(=O)O)c(CC(C)C)c2)ncn1`
Reply text: 7.68
